assay: Dose linearity and effect of feeding, PK in cats (Example 10); assay type: in vivo, cat; settings: female, serum, po, 2 mg/kg, cats, Group 1, 2 mg/kg capsule, Fed, Female, mean; read-out: Cmax
measurement.label: Cmax (ng/mL)
Provide only the numeric value, understood in ng/mL.

In: Dear colleague, please send me the reported Cmax for CCc1nc2c(C)nc(C)cc2n1-c1ccc(CCNC(=O)NS(=O)(=O)c2ccc(C)cc2)cc1 when you can.
Out: 327

----------
experiment: Dose linearity and effect of feeding, PK in cats (Example 10); assay type: in vivo, cat; conditions: female, serum, po, 2 mg/kg, cats, Group 1, 2 mg/kg capsule, Fed, Female, mean; read-out: AUC0-∞
measurement.label: AUC(0-inf) (ng·h/mL)
Provide only the numeric value, understood in ng·h/mL.

In: Dear colleague, please send me the reported AUC(0-inf) for CCc1nc2c(C)nc(C)cc2n1-c1ccc(CCNC(=O)NS(=O)(=O)c2ccc(C)cc2)cc1 when you can.
Out: 1070
